tested on: Intestine; assay: Ratio of intestine AUC in po dosed mdr1 knock out mouse to intestine AUC in po dosed wild type mouse; type: ADME, organism-based; details: in vivo
Assay Metric: Ratio AUC

{"Molecule": "COc1cc([C@@H]2c3cc4c(cc3[C@@H](O[C@@H]3O[C@@H]5CO[C@@H](C)O[C@H]5[C@H](O)[C@H]3O)[C@H]3COC(=O)[C@H]23)OCO4)cc(OC)c1O [ETOPOSIDE]", "Endpoint Result": 3.3}
{"Molecule": "CN/C(=N/CCSCc1nc[nH]c1C)NC#N", "Endpoint Result": 0.95}
{"Molecule": "COc1cccc2c1C(=O)c1c(O)c3c(c(O)c1C2=O)C[C@@](O)(C(C)=O)C[C@@H]3O[C@H]1C[C@H](N)[C@H](O)[C@H](C)O1", "Endpoint Result": 3}
{"Molecule": "C[C@H]1O[C@@H](O[C@H]2[C@@H](O)C[C@H](O[C@H]3[C@@H](O)C[C@H](O[C@H]4CC[C@@]5(C)[C@H](CC[C@@H]6[C@@H]5C[C@@H](O)[C@]5(C)[C@@H](C7=CC(=O)OC7)CC[C@]65O)C4)O[C@@H]3C)O[C@@H]2C)C[C@H](O)[C@@H]1O", "Endpoint Result": 12}
{"Molecule": "CC[C@]1(O)C[C@@H]2CN(CCc3c([nH]c4ccccc34)[C@@](C(=O)OC)(c3cc4c(cc3OC)N(C)[C@H]3[C@@](O)(C(=O)OC)[C@H](OC(C)=O)[C@]5(CC)C=CCN6CC[C@]43[C@@H]65)C2)C1", "Endpoint Result": 0.7}
